Assay name: NCI Yeast Anticancer Drug Screen. Data for the cln2 rad14 strain (AID 165);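 further: 0% = growth equal to vehicle treated cultures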
Measurement context: S. cerevisiae cln2 rad14 strain, at 50.0 µM, active compounds read high
Compounds without any hit were thinned out: in the full panel of roughly 79,000, 15% have a hit.
# growth inhibition per record follows
The figure you give is taken to be in %; do not add the unit.

Solved cases (5 shown):
- Compound: "C=CC[N+](C)(CC=C)CC[N+](C)(CC=C)CC=C"
  growth inhibition [%]: -43.5
- Compound: "CC(C)(C)C(c1ccccc1)[N+](C)(C)C (stereo unspecified)"
  growth inhibition [%]: 18.9
- Compound: "CC(C)(C)C1=CC(=O)OC1(Cl)C(C)(C)C (stereo unspecified)"
  growth inhibition [%]: 8.8
- Compound: "O=C(O)c1cc2c(c3c1CCCC3)CCC1CCCC21 (stereo unspecified)"
  growth inhibition [%]: -6.25
- Compound: "CC(C)C(CN)(c1ccccc1)c1ccccc1"
  growth inhibition [%]: -59

Memo: `CCCN1C(=O)CN(S(=O)(=O)c2ccc(Cl)cc2)C1=O` , reported growth inhibition: -8

Value of growth inhibition reported for the compound O=C(O)C(Sc1ccccc1)c1ccccc1 (stereo unspecified) is -32.4

// N#CC(c1ccc(Cl)cc1)c1cccc(C(C#N)c2ccc(Cl)cc2)n1 (stereo unspecified) : growth inhibition value = 32.1

Just so you know, measured growth inhibition for O=P(O)(Cc1ccccc1)OCC1(O)OCC(O)C(O)C1O (stereo unspecified) came out at 12.7

Field growth inhibition (entry `Cc1cccc(C)c1NC(=O)Nc1cccc(Cl)c1` ) reads -0.5

Entry under test: `COc1ccccc1NCS(=O)(=O)O` . Its growth inhibition was -60.2

Entry CCC(CC)CC1CCCCC1=O (stereo unspecified) — recorded growth inhibition = 3.75

growth inhibition for `CCOC(=O)c1cc2c(nc1N)C(=O)CCCC2` is -23.9

* * *

Assay name: NCI Yeast Anticancer Drug Screen. Data for the rad50 strain (AID 155);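 further: 0% = growth of vehicle-only cultures of the same strain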
Measurement context: S. cerevisiae rad50 strain growth inhibition; at 50.0 µM; active compounds read high
This is part of a sample that, as a whole, favours compounds with a hit. Of some 79,000 tested, about 15% had one in any assay.
Reported metric: growth inhibition (%)
Field: numeric (%). Do not append units.

- Molecule: "CC(=O)N1CCC23C(=O)CC4C(=CCOC5CC(=O)N(c6ccccc62)C3C54)C1 (configuration not stated)"
  Unit of measure: "%"
  Numeric value: -19.1
- Molecule: "c1ccc(C(=NN(CCCCN(N=C(c2ccccc2)c2ccccc2)c2ccccc2)c2ccccc2)c2ccccc2)cc1"
  Unit of measure: "%"
  Numeric value: 28.6
- Molecule: "CCOc1ccccc1N1C(=O)C(=O)C(c2nc3ccccc3o2)C(=O)C1=O"
  Unit of measure: "%"
  Numeric value: -8.75
- Molecule: "Cc1nc(N)nc(C)c1Cl"
  Unit of measure: "%"
  Numeric value: -2.15
- Molecule: "O=c1[nH]c(=O)n(C2CC(O)C(CO)O2)cc1C#Cc1ccc(F)cc1 (configuration not stated)"
  Unit of measure: "%"
  Numeric value: -3.45

response.value for `CCOC(=O)Oc1ccc2[nH]c3c(C)cc(N)c(C)c3c2c1` (field: growth inhibition) = 2.35

Measured growth inhibition, O=C1C2=Cc3ccccc3OC2(O)Oc2ccccc21 (configuration not stated) : 8.1
